Target: EGFRΔ19del/T790M/C797S (Homo sapiens, UniProt P00533, T790M/C797S, form not given)
Sequence (P00533 with tags, fused parts or gaps DEL746-750/T790M/C797S, form open): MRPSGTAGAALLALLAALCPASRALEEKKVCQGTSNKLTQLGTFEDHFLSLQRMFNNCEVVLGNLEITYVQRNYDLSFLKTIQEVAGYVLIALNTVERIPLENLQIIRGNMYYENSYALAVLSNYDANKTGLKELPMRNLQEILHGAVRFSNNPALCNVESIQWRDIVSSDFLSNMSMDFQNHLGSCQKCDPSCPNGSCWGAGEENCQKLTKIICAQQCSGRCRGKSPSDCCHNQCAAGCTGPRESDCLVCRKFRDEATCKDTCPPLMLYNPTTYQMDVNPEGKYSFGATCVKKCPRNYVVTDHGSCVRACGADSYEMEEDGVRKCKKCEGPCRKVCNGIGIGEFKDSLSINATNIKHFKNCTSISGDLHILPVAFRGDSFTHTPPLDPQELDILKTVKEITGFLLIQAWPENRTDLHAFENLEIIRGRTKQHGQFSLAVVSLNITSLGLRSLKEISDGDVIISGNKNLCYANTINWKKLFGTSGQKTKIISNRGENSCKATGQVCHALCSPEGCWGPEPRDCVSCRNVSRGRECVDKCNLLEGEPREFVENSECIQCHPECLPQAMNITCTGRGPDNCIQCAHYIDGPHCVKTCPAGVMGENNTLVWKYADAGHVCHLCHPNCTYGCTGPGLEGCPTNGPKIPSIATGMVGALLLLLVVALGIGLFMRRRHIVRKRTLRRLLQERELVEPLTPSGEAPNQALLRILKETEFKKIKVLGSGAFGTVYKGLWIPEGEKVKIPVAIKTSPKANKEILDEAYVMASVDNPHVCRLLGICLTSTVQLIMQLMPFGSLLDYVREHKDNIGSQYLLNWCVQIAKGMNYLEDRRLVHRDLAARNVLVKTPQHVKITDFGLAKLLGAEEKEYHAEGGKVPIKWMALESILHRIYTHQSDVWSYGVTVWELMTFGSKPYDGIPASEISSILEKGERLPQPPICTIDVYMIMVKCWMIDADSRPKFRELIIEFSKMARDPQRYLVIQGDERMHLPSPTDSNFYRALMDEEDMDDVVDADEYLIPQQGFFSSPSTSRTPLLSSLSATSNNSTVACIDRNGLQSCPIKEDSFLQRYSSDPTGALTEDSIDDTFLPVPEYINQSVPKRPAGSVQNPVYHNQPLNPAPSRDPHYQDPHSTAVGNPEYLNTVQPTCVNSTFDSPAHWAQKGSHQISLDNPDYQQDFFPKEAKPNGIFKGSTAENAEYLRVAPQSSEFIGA
Assay: EGFR Δ19del/T790M/C797S kinase test (mobility variation analysis, Caliper EZ Reader)
Conditions: kinase enzymatic activity, Table 1
pIC50: −log10 of the molar value.
measure.name: pIC50

molecule=COc1cnn(-c2ccc(Nc3nc(Nc4cc(C)c(N5CCN(C6CCN(C)CC6)CC5)cc4OC)ncc3Br)c(P(C)(C)=O)c2)c1 measure_name=pIC50 value=9.52
molecule=COc1cc(N2CCC(N3CCN(C)CC3)CC2)c(C)cc1Nc1ncc(Br)c(Nc2ccc(-c3cnn(C)n3)cc2P(C)(C)=O)n1 measure_name=pIC50 value=9.62
molecule=CCc1cc(Nc2ncc(Br)c(Nc3ccc(-c4cnc(C)c(C)n4)cc3P(C)(C)=O)n2)c(OC)cc1N1CCC(N2CCN(C)CC2)CC1 measure_name=pIC50 value=9.22
molecule=CCc1cc(Nc2ncc(Br)c(Nc3ccc(-n4cc(OC)cn4)cc3P(C)(C)=O)n2)c(OC)cc1N1CCC(N2CCN(C)CC2)CC1 measure_name=pIC50 value=9.70
molecule=CCc1cc(Nc2ncc(Br)c(Nc3ccc(-c4nccs4)cc3P(C)(C)=O)n2)c(OC)cc1N1CCC(N2CCN(C)CC2)CC1 measure_name=pIC50 value=8.96
molecule=COc1cnn(-c2ccc(Nc3nc(Nc4cc(C)c(N5CCOCC5)c(OC)c4)ncc3Br)c(P(C)(C)=O)c2)c1 measure_name=pIC50 value=8.85
molecule=CCc1cc(Nc2ncc(Br)c(Nc3ccc(-c4cn(C)nc4OC)cc3P(C)(C)=O)n2)c(OC)cc1N1CCC(N2CCN(C)CC2)CC1 measure_name=pIC50 value=8.89
molecule=COc1cnn(-c2ccc(Nc3nc(Nc4cc(OC)c(N5CCOCC5)cc4C4CC4)ncc3Br)c(P(C)(C)=O)c2)c1 measure_name=pIC50 value=9.22
molecule=C#Cc1cnc(-c2ccc(Nc3nc(Nc4cc(CC)c(N5CCC(N6CCN(C)CC6)CC5)cc4OC)ncc3Br)c(P(C)(C)=O)c2)cn1 measure_name=pIC50 value=9.40
molecule=CCOc1ncc(-c2ccc(Nc3nc(Nc4cc(CC)c(N5CCC(N6CCN(C)CC6)CC5)cc4OC)ncc3Br)c(P(C)(C)=O)c2)cn1 measure_name=pIC50 value=9.52
molecule=COc1cc(Nc2ncc(Br)c(Nc3ccc(-c4cnn(C)n4)cc3P(C)(C)=O)n2)c(C)cc1N1CCOCC1 measure_name=pIC50 value=9.70
molecule=CCOc1cc(Nc2ncc(Br)c(Nc3ccc(-c4ccc(C)cn4)cc3P(C)(C)=O)n2)c(C)cc1N1CCOCC1 measure_name=pIC50 value=9.52
molecule=CCc1cc(Nc2ncc(Br)c(Nc3ccc(-c4ncccn4)cc3P(C)(C)=O)n2)c(OC)cc1N1CCC(N2CCN(C)CC2)CC1 measure_name=pIC50 value=9.40
molecule=CCOc1cc(Nc2ncc(Br)c(Nc3ccc(-c4cnn(C)n4)c(F)c3P(C)(C)=O)n2)c(C)cc1N1CCOCC1 measure_name=pIC50 value=9.40
molecule=CCc1cc(Nc2ncc(Br)c(Nc3ccc(-c4cnc(N(C)C)nc4)cc3P(C)(C)=O)n2)c(OC)cc1N1CCC(N2CCN(C)CC2)CC1 measure_name=pIC50 value=9.52
molecule=CCc1cc(Nc2ncc(Br)c(Nc3ccc(-c4cnn(C)c4)cc3P(C)(C)=O)n2)c(OC)cc1N1CCC(N2CCOCC2)CC1 measure_name=pIC50 value=9.40
molecule=COc1cc(Nc2ncc(Br)c(Nc3ccc(-c4cnn(C)c4)cc3P(C)(C)=O)n2)c(C)cc1N1CCOCC1 measure_name=pIC50 value=9.70
molecule=C#Cc1cnc(-c2ccc(Nc3nc(Nc4cc(OC)c(N5CCC(N6CCN(C)CC6)CC5)cc4C)ncc3Br)c(P(C)(C)=O)c2)cn1 measure_name=pIC50 value=9.30
molecule=CCc1cc(Nc2ncc(Br)c(Nc3ccc(-c4cc5cc(C#N)ccc5[nH]4)cc3P(C)(C)=O)n2)c(OC)cc1N1CCC(N2CCN(C)CC2)CC1 measure_name=pIC50 value=8.60
molecule=CCc1cc(Nc2ncc(Cl)c(Nc3ccc(-c4cnc(C)nc4)cc3P(C)(C)=O)n2)c(OC)cc1N1CCC(N2CCN(C)CC2)CC1 measure_name=pIC50 value=9.15
molecule=COc1cnn(-c2ccc(Nc3nc(Nc4cc(OC)c(N5CCC(N(C)C)CC5)cc4C)ncc3Br)c(P(C)(C)=O)c2)c1 measure_name=pIC50 value=9.70
molecule=COc1cnn(-c2ccc(Nc3nc(Nc4cc(OC)c(N5CCN(C)CC5)cc4C)ncc3Br)c(P(C)(C)=O)c2)c1 measure_name=pIC50 value=10.00
molecule=CCn1cc(-c2cc(Nc3ncc(Br)c(Nc4ccc(-c5cccc6cc[nH]c56)cc4P(C)(C)=O)n3)c(OC)cc2N2CCC(N3CCN(C)CC3)CC2)cn1 measure_name=pIC50 value=9.10
molecule=CCc1cc(Nc2ncc(Br)c(Nc3ccc(-c4cccc(N(C)C)n4)cc3P(C)(C)=O)n2)c(OC)cc1N1CCC(N2CCN(C)CC2)CC1 measure_name=pIC50 value=8.89
molecule=CCc1cc(Nc2ncc(Br)c(Nc3ccc(-c4ncc(F)cn4)cc3P(C)(C)=O)n2)c(OC)cc1N1CCC(N2CCN(C)CC2)CC1 measure_name=pIC50 value=9.70

###

Listed here: items and their measured GI50.
Target: Ba/F3 cells with EGFR Δ19del/T790M/C797S mutation gene stably overexpressed (Homo sapiens, UniProt P00533, T790M/C797S, cells depend on it, form not given)
Sequence (P00533 with tags, fused parts or gaps DEL746-750/T790M/C797S, form open): as above
Experiment: Ba/F3-Δ19del/T790M/C797S cell proliferation assay (CellTiter Glo, 72 hours)
Format: cell-based
Settings: Table 2, read-out: EGFR Δ19del/T790M/C797S IC50
measure.name: GI50 (nM)

molecule=CCc1cc(Nc2ncc(Br)c(Nc3ccc(-c4ncc(OC)cn4)cc3P(C)(C)=O)n2)c(OC)cc1N1CCC(N2CCN(C)CC2)CC1 value=15.2
molecule=CCc1cc(Nc2ncc(Cl)c(Nc3ccc(-c4nn(C)cc4C#N)cc3P(C)(C)=O)n2)c(OC)cc1N1CCC(N2CCN(C)CC2)CC1 value=40.8
molecule=CCc1cc(Nc2ncc(Br)c(Nc3ccc(-c4ccccc4)cc3P(C)(C)=O)n2)c(OC)cc1N1CCC(N2CCN(C)CC2)CC1 value=2.2

###

Item-by-item account of pIC50
Target: EGFRΔ19del/T790M/C797S (Homo sapiens, UniProt P00533, T790M/C797S, form not given)
Assay: EGFR Δ19del/T790M/C797S kinase test (mobility variation analysis, Caliper EZ Reader)
Conditions: kinase enzymatic activity, Table 1
pIC50: −log10 of the molar value.
measure.name: pIC50

molecule=CCc1cc(Nc2ncc(Cl)c(Nc3ccc(-c4ncc(F)cn4)cc3P(C)(C)=O)n2)c(OC)cc1N1CCC(N2CCN(C)CC2)CC1 measure_name=pIC50 value=9.15
molecule=CCc1cc(Nc2ncc(Br)c(Nc3ccc(-c4cnn(CC)c4)cc3P(C)(C)=O)n2)c(OC)cc1N1CCC(N2CCN(C)CC2)CC1 measure_name=pIC50 value=9.22
molecule=CCc1cc(Nc2ncc(Br)c(Nc3ccc(-n4cc(COC)cn4)cc3P(C)(C)=O)n2)c(OC)cc1N1CCC(N2CCN(C)CC2)CC1 measure_name=pIC50 value=9.52
molecule="CCc1cc(Nc2ncc(Br)c(Nc3ccc(-c4cncc(OC)n4)cc3P(C)(C)=O)n2)c(OC)cc1N1CCC(N2CCN(C)CC2)CC1 [Compound 13]" measure_name=pIC50 value=9.40
molecule="CCc1cc(Nc2ncc(Br)c(Nc3ccc(-c4ccc(C)cn4)cc3P(C)(C)=O)n2)c(OC)cc1N1CCC(N2CCN(C)CC2)CC1 [Compound 83]" measure_name=pIC50 value=9.52
molecule=CCc1cc(Nc2ncc(Cl)c(Nc3ccc(-c4cnn5c4CC(C)(C)C5)cc3P(C)(C)=O)n2)c(OC)cc1N1CCC(N2CCN(C)CC2)CC1 measure_name=pIC50 value=8.82
molecule=CCc1cc(Nc2ncc(Br)c(Nc3ccc(-c4cccc5cc[nH]c45)cc3P(C)(C)=O)n2)c(OC)cc1N1CCC(N2CCN(C)CC2)CC1 measure_name=pIC50 value=8.72
molecule=CCc1cc(Nc2ncc(Cl)c(Nc3ccc(-c4nnc(C)o4)cc3P(C)(C)=O)n2)c(OC)cc1N1CCC(N2CCN(C)CC2)CC1 measure_name=pIC50 value=9.40
molecule=COc1cnn(-c2ccc(Nc3nc(Nc4cc(OC)c(N5CCOCC5)cc4C)ncc3Br)c(P(C)(C)=O)c2)c1 measure_name=pIC50 value=9.70
molecule=COc1cc(Nc2ncc(Br)c(Nc3ccc(-c4ccc(C)cn4)cc3P(C)(C)=O)n2)c(C)cc1N1CCOCC1 measure_name=pIC50 value=9.52
molecule=CCc1cc(Nc2ncc(Br)c(Nc3ccc(-c4ncn(C)n4)cc3P(C)(C)=O)n2)c(OC)cc1N1CCC(N2CCN(C)CC2)CC1 measure_name=pIC50 value=9.52
molecule=CCc1cc(Nc2ncc(Br)c(Nc3ccc(-c4ncco4)cc3P(C)(C)=O)n2)c(OC)cc1N1CCC(N2CCN(C)CC2)CC1 measure_name=pIC50 value=9.52
molecule=CCc1cc(Nc2ncc(Br)c(Nc3ccc(-n4cccn4)cc3P(C)(C)=O)n2)c(OC)cc1N1CCC(N2CCN(C)CC2)CC1 measure_name=pIC50 value=8.39
